TEST TARGET: T1, ASB7-Elongin B-Elongin C ternary complex (wild-type ASB7, residues 11-318) (human, UniProt Q9H672 11-318; Q15370 1-104; Q15369 17-112)
T1 construct: human ASB7, residues 11-318; human Elongin B, residues 1-104; also called ASB7-Elongin B/C; WT; source: E. coli BL21 (DE3), co-expressed, purified (Ni-NTA, Superdex 200); not shown: SUMO, N-terminal, cleaved; copies: + +
T1 sequence (Q9H672 11-318, chain 1 of 3): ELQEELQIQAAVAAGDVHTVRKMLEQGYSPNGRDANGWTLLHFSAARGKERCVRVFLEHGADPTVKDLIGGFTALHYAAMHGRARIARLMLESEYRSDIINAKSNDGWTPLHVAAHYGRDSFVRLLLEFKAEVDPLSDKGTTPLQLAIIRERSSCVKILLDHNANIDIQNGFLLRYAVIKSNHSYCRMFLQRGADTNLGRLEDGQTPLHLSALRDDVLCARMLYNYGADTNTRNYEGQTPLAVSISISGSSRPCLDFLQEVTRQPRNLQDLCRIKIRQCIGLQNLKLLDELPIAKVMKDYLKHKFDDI
T1 sequence (Q15370 1-104, chain 2 of 3): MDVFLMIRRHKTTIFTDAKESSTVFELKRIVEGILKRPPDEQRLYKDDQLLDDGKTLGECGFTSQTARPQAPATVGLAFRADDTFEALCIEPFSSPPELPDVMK
T1 sequence (Q15369 17-112, chain 3 of 3): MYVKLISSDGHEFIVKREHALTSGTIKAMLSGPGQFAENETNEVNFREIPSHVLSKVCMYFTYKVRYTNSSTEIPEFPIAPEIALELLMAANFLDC
TEST SUMMARY: ITC; peptide in the syringe titrated into ASB7-Elongin B/C in the cell; MicroCal PEAQ-ITC, 16 °C, 20 mM Tris-HCl pH 7.5, 150 mM NaCl; 39–156 μM protein, 0.8–4 mM peptide; repeated three times, mean ± SD
MEASUREMENT CONDITIONS: both partners purified
# stoichiometry N per entry
Lab note: record the figure alone, no unit after it.

Give its stoichiometry N value. Item: EIGELKAVMEGIKMEHQLELGN (stretch of CLIP2, a reported ASB7 substrate; source: synthetic peptide (Shanghai Apeptide Co., Ltd.)) [CLIP2 degron peptide] 0.71

Query ELESLMKEQDLLETKLRSYER (LZTS1 degron shortened by two residues at the N-terminus; source: synthetic peptide (Shanghai Apeptide Co., Ltd.)) [LZTS1 degron peptide, 21 residues (ELESLMKEQDLLETKLRSYER)] next 0.68

Query EDDEGLKHLQQEAEKLVASLQDS (stretch of GIGYF1, a reported ASB7 substrate; source: synthetic peptide (Shanghai Apeptide Co., Ltd.)) [GIGYF1 degron peptide] next 0.78

Query RQELESLMKEQDLLETKLRSRER (numbers count on: the degron, E1 = third letter of the 23-residue peptide; source: synthetic peptide (Shanghai Apeptide Co., Ltd.)) [LZTS1 degron peptide Y19R] next 0.71

Query RQELESLMKEQDLLETKLRSY (LZTS1 degron shortened by two residues at the C-terminus; source: synthetic peptide (Shanghai Apeptide Co., Ltd.)) [LZTS1 degron peptide, 21 residues (RQELESLMKEQDLLETKLRSY)] next 0.91

Query PEKLEEILDEANRLAAQLEQCAL (stretch of DDA3; the text names the region as residues 70-93 (24 residues) and the peptide as 23 residues; also called DDA3 peptide; source: synthetic peptide (Shanghai Apeptide Co., Ltd.)) [DDA3 degron peptide] next 1.32
